# Assayed system: Gal(b1-4)GlcNAc(b1-3)Gal(b1-4)GlcNAc(b1-3)Gal(b1-4)GlcNAc(b1-2)[Gal(b1-4)GlcNAc(b1-3)Gal(b1-4)GlcNAc(b1-3)Gal(b1-4)GlcNAc(b1-6)]Man(a1-6)[Gal(b1-4)GlcNAc(b1-3)Gal(b1-4)GlcNAc(b1-3)Gal(b1-4)GlcNAc(b1-2)Man(a1-3)]Man(b1-4)GlcNAc(b1-4)[Fuc(a1-6)]GlcNAc
# Protocol description: glycan array binding signal (z-score within array); higher = stronger binding
# Measurement conditions: glycan notation: IUPAC condensed, linker removed
Shown is part of a subset that was picked to be rich in the strongest signals.
Measured metric: glycan array binding signal (z-score)
Answer with a number only.

Use these answered entries as a reference point.
binder="rMpL (Macrolepiota procera) (protein) MSTQVSSGRTYKITNVIAGTVIDLSGEDNKSIIGYPYHSGKNQQWTFNWTGKAWTLRSASSGSYLGIEGTPAGGTRLVAVNDPFEWHIWRDEANENAFRIFVPFTNYNLDLSGYGDTTPGTPVQLWWTWEGLHQTWTIDRP" measured_metric="glycan array binding signal (z-score)" reported_result=4.71
binder="CLECb-Precomplexed (Mus musculus), P43025 (protein) MAKNGLVLCILVVSLLLDQTDGYPSRMKARKHSKRRVKAKDDDLKSQVEKLWREVNALKEMQALQTVCLRGTKVHKKCYLASEGLKHYHEANEDCISKGGTLVVPRNSDEINALRDYGKRSLPGVNDFWLGINDMVTEGKFLDVHGFAVSFLNWDRAQPSGGKRENCVLFSQSAQGKWSDEACRSSKRYICEFIIPTRTRPLEQKLISEEDLAANDILDYKDDDDKV" measured_metric="glycan array binding signal (z-score)" reported_result=3.07
binder="CpGal16 (Clavelina picta) (protein) MAKMITNYVGKRIECIMVATDMMSTVFSLASATGDLPFYINFRQRENSIVMNTRVHGKWQYEKSQSSGGMNFYEPFRLVVEVRPSVFKVTVSTMGEEDGITFNLQYSQITIKPDEIVAMHLGYCNLRSELLVTDL" measured_metric="glycan array binding signal (z-score)" reported_result=1.44
binder="CGL (Crenomytilus grayanus), H2FH31 (protein) MTTFLIKHKASGKFLHPYGGSSNPANNTKLVLHSDIHERMYFQFDVVDERWGYIKHVASGKIVHPYGGQANPPNETNMVLHQDRHDRALFAMDFFNDNIMHKGGKYIHPKGGSPNPPNNTETVIHGDKHAAMEFIFVSPKNKDKRVLVYA" measured_metric="glycan array binding signal (z-score)" reported_result=3.3
binder="GNA (Galanthus nivalis), P30617 (protein) MAKASLLILAAIFLGVITPSCLSDNILYSGETLSTGEFLNYGSFVFIMQEDCNLVLYDVDKPIWATNTGGLSRSCFLSMQTDGNLVVYNPSNKPIWASNTGGQNGNYVCILQKDRNVVIYGTDRWATGTHTGLVGIPASPPSEKYPTAGKIKLVTAK" measured_metric="glycan array binding signal (z-score)" reported_result=-0.116

// switching to the query binder
Which measured glycan array binding signal (z-score) value corresponds to EUL D1A first (Oryza sativa) (protein) MFGFGHHHNQAPAAPSDPNQIFKIFCRANENYCLTVRDSAVVLAPVNPKDEHQHWFKDMRFSTKVKDGEGMPAFALVNKATGLAVKHSLGQSHPVKLVPFNPEYEDASVLWTESKDVGKGFRCIRMVNNTRLNLDAFHGDKDHGGVRDGTTVVLWEWCKGDNQSWKILPWGPEAHSSSPGAATILEQKLISEEDLNSAVDHHHHHH ?
2.45
